- studySystem: KDR (Homo sapiens, UniProt P35968)
- Sequence (P35968 20-1356): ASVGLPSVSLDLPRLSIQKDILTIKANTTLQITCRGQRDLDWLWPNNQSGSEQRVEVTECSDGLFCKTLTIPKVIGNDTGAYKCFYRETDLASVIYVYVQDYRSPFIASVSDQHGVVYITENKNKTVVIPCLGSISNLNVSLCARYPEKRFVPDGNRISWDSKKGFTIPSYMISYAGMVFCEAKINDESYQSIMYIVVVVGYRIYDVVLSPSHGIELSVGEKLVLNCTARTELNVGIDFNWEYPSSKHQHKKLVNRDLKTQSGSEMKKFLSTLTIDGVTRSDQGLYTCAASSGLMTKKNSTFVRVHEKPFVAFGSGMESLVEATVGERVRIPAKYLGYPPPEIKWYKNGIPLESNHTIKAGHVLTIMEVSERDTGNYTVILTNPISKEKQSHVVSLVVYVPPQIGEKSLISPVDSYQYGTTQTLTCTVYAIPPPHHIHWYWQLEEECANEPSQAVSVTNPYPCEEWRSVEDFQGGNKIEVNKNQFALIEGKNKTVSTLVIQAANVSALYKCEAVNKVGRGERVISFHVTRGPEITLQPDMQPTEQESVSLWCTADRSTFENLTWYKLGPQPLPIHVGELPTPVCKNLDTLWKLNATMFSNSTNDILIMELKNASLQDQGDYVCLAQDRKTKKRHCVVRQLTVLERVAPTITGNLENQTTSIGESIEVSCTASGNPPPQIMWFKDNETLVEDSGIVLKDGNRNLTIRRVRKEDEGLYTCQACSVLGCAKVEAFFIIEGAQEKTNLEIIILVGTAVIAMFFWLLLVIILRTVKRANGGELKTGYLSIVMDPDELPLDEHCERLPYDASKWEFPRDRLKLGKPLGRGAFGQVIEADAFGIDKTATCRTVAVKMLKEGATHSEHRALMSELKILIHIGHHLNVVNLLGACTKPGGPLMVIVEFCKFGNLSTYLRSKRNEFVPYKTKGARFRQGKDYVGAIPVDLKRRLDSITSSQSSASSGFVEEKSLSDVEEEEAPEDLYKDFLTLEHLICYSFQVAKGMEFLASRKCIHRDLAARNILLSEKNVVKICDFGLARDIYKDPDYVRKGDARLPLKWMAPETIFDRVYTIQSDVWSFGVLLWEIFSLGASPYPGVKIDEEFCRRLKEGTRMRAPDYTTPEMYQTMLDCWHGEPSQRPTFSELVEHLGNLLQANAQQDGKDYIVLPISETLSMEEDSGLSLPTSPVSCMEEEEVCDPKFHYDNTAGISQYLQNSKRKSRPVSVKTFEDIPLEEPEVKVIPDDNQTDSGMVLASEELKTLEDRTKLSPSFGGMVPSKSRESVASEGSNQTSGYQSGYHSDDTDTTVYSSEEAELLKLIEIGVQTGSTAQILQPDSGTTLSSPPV
- assayText: Enzymatic KDR in vitro inhibition
- Assay type: biochemical
inhibition at 10 µM reference

{"cpdSmiles": "Cc1ccc(C(=O)NCCCn2ccnc2)cc1Nc1nccc(-c2cccnc2)n1", "inhibition at 10 µM (%)": 62}
{"cpdSmiles": "Cc1ccc(C(=O)NC(c2ccccc2)c2ccccc2)cc1Nc1nccc(-c2cccnc2)n1", "inhibition at 10 µM (%)": 52}
{"cpdSmiles": "Cc1ccc(C(=O)NCc2ccc(N(C)C)cc2)cc1Nc1nccc(-c2cccnc2)n1", "inhibition at 10 µM (%)": 73}
{"cpdSmiles": "Cc1ccc(C(=O)NCCN2CCOCC2)cc1Nc1nccc(-c2cccnc2)n1", "inhibition at 10 µM (%)": 48}
{"cpdSmiles": "Cc1ccc(NC(=O)c2ccc(C)c(Nc3nccc(-c4cccnc4)n3)c2)nc1", "inhibition at 10 µM (%)": 26}
{"cpdSmiles": "CCN(CC)c1cccc(NC(=O)c2ccc(C)c(Nc3nccc(-c4cccnc4)n3)c2)c1", "inhibition at 10 µM (%)": 88}
{"cpdSmiles": "Cc1ccc(C(=O)NC2CCCCC2)cc1Nc1nccc(-c2cccnc2)n1", "inhibition at 10 µM (%)": 48}
{"cpdSmiles": "Cc1ccc(C(=O)NCc2cc(C(C)(C)O)cc(C(F)(F)F)c2)cc1Nc1nccc(-c2cccnc2)n1", "inhibition at 10 µM (%)": 96}
{"cpdSmiles": "COC(=O)CCNC(=O)c1ccc(C)c(Nc2nccc(-c3cccnc3)n2)c1", "inhibition at 10 µM (%)": 61}
{"cpdSmiles": "CCOC(=O)Cc1csc(NC(=O)c2ccc(C)c(Nc3nccc(-c4cccnc4)n3)c2)n1", "inhibition at 10 µM (%)": 10}
{"cpdSmiles": "Cc1ccc(C(=O)NCCCN2CCCC2=O)cc1Nc1nccc(-c2cccnc2)n1", "inhibition at 10 µM (%)": 22}
{"cpdSmiles": "Cc1ccc(C(=O)N2CCc3ccccc3C2)cc1Nc1nccc(-c2cccnc2)n1", "inhibition at 10 µM (%)": 97}

###

inhibition at 10 µM reference
- studySystem: KDR (Homo sapiens)
- assayText: Enzymatic KDR in vitro inhibition
- Assay type: biochemical

{"molecule": "Cc1ccc(C(=O)N2CCN(c3ccccn3)CC2)cc1Nc1nccc(-c2cccnc2)n1", "inhibition at 10 µM (%)": 71}
{"molecule": "Cc1ccc(C(=O)NCC(c2ccccc2)c2ccccc2)cc1Nc1nccc(-c2cccnc2)n1", "inhibition at 10 µM (%)": 37}
{"molecule": "Cc1ccc(C(=O)N2CCN(Cc3ccccc3)CC2)cc1Nc1nccc(-c2cccnc2)n1", "inhibition at 10 µM (%)": 74}
{"molecule": "Cc1ccc(C(=O)NCCN2CCNC2=O)cc1Nc1nccc(-c2cccnc2)n1", "inhibition at 10 µM (%)": 42}
{"molecule": "Cc1ccc(C(=O)NCCc2cnc(O)nc2O)cc1Nc1nccc(-c2cccnc2)n1", "inhibition at 10 µM (%)": 33}
{"molecule": "Cc1ccc(C(=O)NC2CCc3ccccc32)cc1Nc1nccc(-c2cccnc2)n1 (stereo not drawn)", "inhibition at 10 µM (%)": 83}

###

inhibition at 10 µM reference
- studySystem: c-Abl (Homo sapiens, UniProt P00519)
- Construct: The His-tagged kinase domain of c-Abl is cloned and expressed in the baculovirus/Sf9 system; His; made in house; host or cells: baculovirus/Sf9
- Sequence (P00519 242-493 limits assumed): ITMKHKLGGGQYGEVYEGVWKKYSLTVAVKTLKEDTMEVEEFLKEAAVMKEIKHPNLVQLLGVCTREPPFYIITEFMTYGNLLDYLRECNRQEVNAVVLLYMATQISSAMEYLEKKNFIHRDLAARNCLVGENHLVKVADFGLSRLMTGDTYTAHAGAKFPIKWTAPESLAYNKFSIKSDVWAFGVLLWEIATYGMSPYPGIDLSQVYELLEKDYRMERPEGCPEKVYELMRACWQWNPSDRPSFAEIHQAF
- assayText: Test for activity against c-Abl protein tyrosine kinase (filter binding assay)
- Type: biochemical

{"molecule": "CCOC(=O)C(NC(=O)c1ccc(C)c(Nc2nccc(-c3cccnc3)n2)c1)C(=O)OCC", "inhibition at 10 µM [%]": 96}
{"molecule": "COC(=O)CNC(=O)c1ccc(C)c(Nc2nccc(-c3cccnc3)n2)c1", "inhibition at 10 µM [%]": 54}
{"molecule": "Cc1ccc(C(=O)NC2CCc3ccccc32)cc1Nc1nccc(-c2cccnc2)n1 (stereo not drawn)", "inhibition at 10 µM [%]": 87}
{"molecule": "Cc1ccc(C(=O)NCC2CCCO2)cc1Nc1nccc(-c2cccnc2)n1 (stereo not drawn)", "inhibition at 10 µM [%]": 53}
{"molecule": "Cc1ccc(C(=O)N2CCN(c3ccncc3)CC2)cc1Nc1nccc(-c2cccnc2)n1", "inhibition at 10 µM [%]": 28}
{"molecule": "Cc1ccc(C(=O)NCCc2ccccn2)cc1Nc1nccc(-c2cccnc2)n1", "inhibition at 10 µM [%]": 77}
